meta.source: patent US6815460B2

Listing of recorded melting point by entry.
Where a name gives a salt, the structure may show the parent alone.

molecule	melting point
Cc1onc(-c2ccccc2)c1-c1ccc(S(=O)(=O)NC(=O)CN)cc1	230.7 to 234.7 °C
CNS(=O)(=O)c1ccc(C2=C(c3ccc(F)cc3)CCC2)cc1	121 to 122 °C
CCOCC(=O)NS(=O)(=O)c1ccc(-c2c(-c3ccccc3)noc2C)cc1	131.3 to 132.2 °C
COc1ccc2c(c1F)CSc1c(C(F)F)nn(-c3ccc(S(=O)(=O)NC(C)=O)cc3)c1-2.[Na]	> 300 °C
CCCC(=O)NS(=O)(=O)c1ccc(-n2cc(C(F)(F)F)nc2-c2cccnc2C)cc1	250 to 252 °C
CC(=O)NS(=O)(=O)c1ccc(-c2c(-c3ccccc3)noc2C)cc1.[K]	279.7 to 283.7 °C
CC(=O)NS(=O)(=O)c1ccc(-c2c(-c3cccc(F)c3)noc2C)cc1 (as salt: sodium) [Example 13]	112 to 131 °C

Continue with the next molecule.
Task: State its melting point for this molecule: `Cc1onc(-c2ccccc2)c1-c1ccc(S(=O)(=O)NC(=O)C(C)(C)C)cc1`
Output: 190.5 to 191.1 °C
